subject of test: ACO1 (aconitase activity of rat heart homogenate supernatant)
Construct: crude rat heart homogenate, 12,000 x g supernatant
experimental details: aconitase activity, absorbance of aconitate at […] nm
condition info: 10 min preincubation, citrate 4 μM, 100 μg protein, Tris-HCl 20 mM pH 7.4, room temperature, no oxidant
measurement name: IC50 (µM)
Field: numeric (µM). Do not append units.

## Input Enter reported IC50 observed with ACO1 (aconitase activity of rat heart homogenate supernatant) for O=c1cc(-c2ccccc2)oc2cc(O)c(O)c(O)c12 [baicalein, 5,6,7-trihydroxyflavone]
## Output 166
